Test: HEK-293T viability loss after treatment – luminescence, T-cell screen hits, cytotoxicity control for TCR NF-kB inhibitor project, dose response (AID 489026);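 further: cells exposed to compound about 14 hours before the viability readout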
Assay type: functional, cell-based
Active and inactive are the calls of the source.
resultType: IC50

> print(dat)
                                   compound  resulttype   experimentalvalue
1  COc1cccc(N2CCN(C(=O)c3ccc(C[S+]([O-])c4ccccc4C)o3)CC2)c1 (centres undefined)        IC50  > 80 µM (inactive)
2  Cn1c2c(c(=O)n(C)c1=O)C(C(F)(F)F)(C(F)(F)F)NC(c1ccc(Cl)cc1)=N2        IC50  > 80 µM (inactive)
3         CCCCCCCCCCCCCCCC[n+]1ccc(C=NO)cc1        IC50  67.7 µM (inactive)
4  O=C(NN=Cc1c(O)ccc2ccccc12)c1ccc2c(c1)OCO2        IC50  > 80 µM (inactive)

###

Molecular target: Caspase-3 (Homo sapiens, UniProt P42574);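 further: Dose-response selectivity test against caspase-3 for candidate inhibitors of sentrin-specific proteases (SENPs)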
Sequence (P42574 whole entry): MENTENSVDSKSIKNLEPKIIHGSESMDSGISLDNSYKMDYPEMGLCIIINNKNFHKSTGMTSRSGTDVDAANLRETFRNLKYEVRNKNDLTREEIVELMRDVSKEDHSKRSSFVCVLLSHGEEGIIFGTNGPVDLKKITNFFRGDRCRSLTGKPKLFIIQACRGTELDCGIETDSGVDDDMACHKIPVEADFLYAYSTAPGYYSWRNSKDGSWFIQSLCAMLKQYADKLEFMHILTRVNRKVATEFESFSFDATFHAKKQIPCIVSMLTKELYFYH
Format: functional
The source made the active and inactive calls.
resultType: IC50

> print(dat)
                                   compound                              targetentity  resulttype  experimentalvalue
1         C/C(=N\OC(=O)c1ccc(Cl)cc1)c1nccs1  Caspase-3 (Homo sapiens, UniProt P42574)        IC50   15.1 µM (active)
2         CCOC(=O)Nc1ccc2nc(N3CCCCCC3)sc2c1  Caspase-3 (Homo sapiens, UniProt P42574)        IC50   31.1 µM (active)
3  O=C(Nc1cccc(Cl)c1)Nc1ccccc1C(=O)NCc1ccco1  Caspase-3 (Homo sapiens, UniProt P42574)        IC50   21.4 µM (active)
4  CC1CCCC(NC(=O)COC(=O)c2ccc([N+](=O)[O-])s2)C1C (stereo unspecified)  Caspase-3 (Homo sapiens, UniProt P42574)        IC50   13.7 µM (active)
5  O=C(/C=C/c1ccccc1)n1cnnc1SC/C=C/c1ccccc1  Caspase-3 (Homo sapiens, UniProt P42574)        IC50   37.3 µM (active)
6  COc1ccc(-n2c(NC(=O)c3ccco3)c(C#N)c3nc4ccccc4nc32)cc1  Caspase-3 (Homo sapiens, UniProt P42574)        IC50   26.6 µM (active)

###

This section presents molecules with their documented AC50 values.
Test system: INS1
Assay: INS-1E survival protection against cytokine death – cell-based, luminescence, retest, dose response (AID 449756);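 further: cell death triggered by IL-1 beta plus TNF-alpha plus IFN-gamma mixture; protective hits raise ATP signal compared with cytokine alone wells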
Format: functional
Details: Rattus norvegicus
Active and inactive are the calls of the source.
resultType: AC50

> print(dat)
                          structurenotation  targetentity  resulttype  experimentalvalue
1  C#Cc1ccc([C@@H]2C=C(C(=O)N3CCN(Cc4ccccc4)CC3)O[C@H](OCCCCO)C2)cc1          INS1        AC50   1.01 µM (active)
2  CC(C)(C)c1cc(C(=O)N/N=C/c2ccccc2O)n(-c2ccccc2)n1          INS1        AC50   3.37 µM (active)
3  CC1=C/C(=N\OS(=O)(=O)c2ccccc2)C(C)=CC1=O          INS1        AC50   1.17 µM (active)
4                     Cc1ccc2ccc3cccnc3c2n1          INS1        AC50  0.865 µM (active)
5  Cc1ccc(C(C)C)c(OCc2n[n+](CC(=O)c3ccc(OC(F)F)cc3)c3n2CCCCC3)c1          INS1        AC50   3.09 µM (active)
6  COc1ccc(Cn2c(SCc3ccccc3C)nc3cc(OC)c(OC)cc3c2=N)cc1          INS1        AC50    4.3 µM (active)
7  Cc1cc(C)n(-c2nc(NCCN(C)C)c3c4c(sc3n2)CCCC4)n1          INS1        AC50   8.03 µM (active)
8  COc1ccc2cc1Oc1ccc(cc1)C[C@H]1c3c(cc(OC)c4c3Oc3c(ccc5c3[C@H](C2)N(C)CC5)O4)CCN1C          INS1        AC50   8.02 µM (active)
9  Cc1c(C(=O)N(Cc2ccccc2)C(C)C)oc2ccc(S(=O)(=O)N3CCOCC3)cc12          INS1        AC50     48 µM (active)
